- TARGET_SYSTEM: Glutaminase kidney isoform, mitochondrial (Homo sapiens)
- Sequence (O94925 whole entry, canonical isoform): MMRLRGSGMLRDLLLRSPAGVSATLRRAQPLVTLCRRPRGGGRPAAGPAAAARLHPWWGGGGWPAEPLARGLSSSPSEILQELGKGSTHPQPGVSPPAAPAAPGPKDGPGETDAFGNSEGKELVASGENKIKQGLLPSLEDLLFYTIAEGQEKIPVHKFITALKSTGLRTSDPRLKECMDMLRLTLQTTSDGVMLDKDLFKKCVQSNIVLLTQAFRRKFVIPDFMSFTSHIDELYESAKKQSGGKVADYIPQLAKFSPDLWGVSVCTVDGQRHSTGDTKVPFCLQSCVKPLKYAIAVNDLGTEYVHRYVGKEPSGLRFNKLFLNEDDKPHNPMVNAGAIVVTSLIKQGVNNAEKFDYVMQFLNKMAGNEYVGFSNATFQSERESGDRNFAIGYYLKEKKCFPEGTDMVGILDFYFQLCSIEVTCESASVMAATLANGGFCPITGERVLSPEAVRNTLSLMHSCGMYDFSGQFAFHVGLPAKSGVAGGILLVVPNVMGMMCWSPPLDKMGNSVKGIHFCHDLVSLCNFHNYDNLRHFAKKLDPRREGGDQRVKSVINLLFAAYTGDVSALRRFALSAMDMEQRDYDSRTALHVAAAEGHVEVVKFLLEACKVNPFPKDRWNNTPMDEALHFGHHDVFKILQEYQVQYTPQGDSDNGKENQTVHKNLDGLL
- EXPERIMENT_DESCRIPTION: Allosteric inhibition of human GLS1 using glutamine as substrate incubated for 60 mins by NADH/NADPH-based absorbance analysis
pIC50: −log10 of the molar value.
ASSAY_READOUT: pIC50

COMPOUND_STRING | pIC50
O=C(CCc1cn(Cc2ccc(OC(F)(F)F)cc2)nn1)Nc1ccc(N2CCC(Nc3nnc(NC(=O)Cc4ccccn4)s3)CC2)nn1 | 7.76
CO[C@H](C(=O)Nc1nnc(NC2CCN(c3nnc(NC(=O)CCc4cn(-c5ccc(C(F)(F)F)cc5)nn4)s3)CC2)s1)c1ccccc1 | 7.72

(1) O=C(Cc1ccccc1)Nc1nnc(N[C@@H]2CCN(c3nnc(NC(=O)CCc4cn(Cc5ccc(C(F)(F)F)cc5)nn4)s3)C2)s1
(2) Cc1cccc(C)c1Cn1cc(CCC(=O)Nc2ccc(N3CCC(Nc4nnc(NC(=O)Cc5ccccn5)s4)CC3)nn2)nn1
Incoming: Given 1 and 2 , report the one with the higher recorded pIC50. Kindly state the label of the option you pick.
Outgoing: 1
(1: 7.91, 2: 7.17)

# credit: ChEMBL document CHEMBL5154870
